- conditionNotes: in n-butanol, 303.15 K
quantityMeasured: solubility (mole fraction)
Would you mind answering with just the numeric figure?

solubility (mole fraction) recorded for this compound, `CN(Cc1ccccc1)CN1C(=O)C(=NNC(=O)c2ccccc2OCc2ccccc2)c2ccccc21` , is 0.00091

---

- conditionNotes: in propylene glycol, 318.15 K
quantityMeasured: solubility (mole fraction)
Would you mind answering with just the numeric figure?

solubility (mole fraction) recorded for this compound, `CN(Cc1ccccc1)CN1C(=O)C(=NNC(=O)c2ccccc2OCc2ccccc2)c2ccccc21` , is 0.000952

---

- conditionNotes: in sec-butanol, 318.15 K
quantityMeasured: solubility (mole fraction)
Would you mind answering with just the numeric figure?

solubility (mole fraction) recorded for this molecule, `CN(Cc1ccccc1)CN1C(=O)C(=NNC(=O)c2ccccc2OCc2ccccc2)c2ccccc21` , is 0.00145

---

- conditionNotes: in ethanol, 318.15 K
quantityMeasured: solubility (mole fraction)
Would you mind answering with just the numeric figure?

solubility (mole fraction) recorded for this molecule, `CN(Cc1ccccc1)CN1C(=O)C(=NNC(=O)c2ccccc2OCc2ccccc2)c2ccccc21` , is 0.000969

---

- conditionNotes: in ethylene glycol, 313.15 K
quantityMeasured: solubility (mole fraction)
Would you mind answering with just the numeric figure?

solubility (mole fraction) recorded for this compound, `CN(Cc1ccccc1)CN1C(=O)C(=NNC(=O)c2ccccc2OCc2ccccc2)c2ccccc21` , is 0.000671

---

- conditionNotes: in propylene glycol, 298.15 K
quantityMeasured: solubility (mole fraction)
Would you mind answering with just the numeric figure?

solubility (mole fraction) recorded for this compound, `CN(Cc1ccccc1)CN1C(=O)C(=NNC(=O)c2ccccc2OCc2ccccc2)c2ccccc21` , is 0.000362

---

- conditionNotes: in isopropanol, 303.15 K
quantityMeasured: solubility (mole fraction)
Would you mind answering with just the numeric figure?

solubility (mole fraction) recorded for this compound, `CN(Cc1ccccc1)CN1C(=O)C(=NNC(=O)c2ccccc2OCc2ccccc2)c2ccccc21` , is 0.00053

---

- conditionNotes: in sec-butanol, 313.15 K
quantityMeasured: solubility (mole fraction)

solubility (mole fraction) recorded for this compound, `CN(Cc1ccccc1)CN1C(=O)C(=NNC(=O)c2ccccc2OCc2ccccc2)c2ccccc21` , is 0.00129

---

- conditionNotes: in transcutol, 308.15 K
quantityMeasured: solubility (mole fraction)
Would you mind answering with just the numeric figure?

solubility (mole fraction) recorded for this compound, `CN(Cc1ccccc1)CN1C(=O)C(=NNC(=O)c2ccccc2OCc2ccccc2)c2ccccc21` , is 0.00533

---

- conditionNotes: in n-butanol, 318.15 K
quantityMeasured: solubility (mole fraction)
Would you mind answering with just the numeric figure?

solubility (mole fraction) recorded for this compound, `CN(Cc1ccccc1)CN1C(=O)C(=NNC(=O)c2ccccc2OCc2ccccc2)c2ccccc21` , is 0.00138

---

- conditionNotes: in n-butanol, 298.15 K
quantityMeasured: solubility (mole fraction)
Would you mind answering with just the numeric figure?

solubility (mole fraction) recorded for this compound, `CN(Cc1ccccc1)CN1C(=O)C(=NNC(=O)c2ccccc2OCc2ccccc2)c2ccccc21` , is 0.000759

---

- conditionNotes: in transcutol, 313.15 K
quantityMeasured: solubility (mole fraction)
Would you mind answering with just the numeric figure?

solubility (mole fraction) recorded for this compound, `CN(Cc1ccccc1)CN1C(=O)C(=NNC(=O)c2ccccc2OCc2ccccc2)c2ccccc21` , is 0.00618

---

- conditionNotes: in n-butanol, 308.15 K
quantityMeasured: solubility (mole fraction)
Would you mind answering with just the numeric figure?

solubility (mole fraction) recorded for this compound, `CN(Cc1ccccc1)CN1C(=O)C(=NNC(=O)c2ccccc2OCc2ccccc2)c2ccccc21` , is 0.00106

---

- conditionNotes: in ethylene glycol, 318.15 K
quantityMeasured: solubility (mole fraction)
Would you mind answering with just the numeric figure?

solubility (mole fraction) recorded for this compound, `CN(Cc1ccccc1)CN1C(=O)C(=NNC(=O)c2ccccc2OCc2ccccc2)c2ccccc21` , is 0.000809

---

- conditionNotes: in sec-butanol, 308.15 K
quantityMeasured: solubility (mole fraction)
Would you mind answering with just the numeric figure?

solubility (mole fraction) recorded for this compound, `CN(Cc1ccccc1)CN1C(=O)C(=NNC(=O)c2ccccc2OCc2ccccc2)c2ccccc21` , is 0.00113

---

- conditionNotes: in isopropanol, 313.15 K
quantityMeasured: solubility (mole fraction)
Would you mind answering with just the numeric figure?

solubility (mole fraction) recorded for this compound, `CN(Cc1ccccc1)CN1C(=O)C(=NNC(=O)c2ccccc2OCc2ccccc2)c2ccccc21` , is 0.000802

---

- conditionNotes: in PEG-400, 298.15 K
quantityMeasured: solubility (mole fraction)
Would you mind answering with just the numeric figure?

solubility (mole fraction) recorded for this compound, `CN(Cc1ccccc1)CN1C(=O)C(=NNC(=O)c2ccccc2OCc2ccccc2)c2ccccc21` , is 0.00711

---

- conditionNotes: in propylene glycol, 303.15 K
quantityMeasured: solubility (mole fraction)
Would you mind answering with just the numeric figure?

solubility (mole fraction) recorded for this compound, `CN(Cc1ccccc1)CN1C(=O)C(=NNC(=O)c2ccccc2OCc2ccccc2)c2ccccc21` , is 0.000488

---

- conditionNotes: in water, 298.15 K
quantityMeasured: solubility (mole fraction)
Would you mind answering with just the numeric figure?

solubility (mole fraction) recorded for this molecule, `CN(Cc1ccccc1)CN1C(=O)C(=NNC(=O)c2ccccc2OCc2ccccc2)c2ccccc21` , is 1.11e-06

---

- conditionNotes: in transcutol, 303.15 K
quantityMeasured: solubility (mole fraction)

solubility (mole fraction) recorded for this molecule, `CN(Cc1ccccc1)CN1C(=O)C(=NNC(=O)c2ccccc2OCc2ccccc2)c2ccccc21` , is 0.00453

---

- conditionNotes: in ethylene glycol, 308.15 K
quantityMeasured: solubility (mole fraction)
Would you mind answering with just the numeric figure?

solubility (mole fraction) recorded for this compound, `CN(Cc1ccccc1)CN1C(=O)C(=NNC(=O)c2ccccc2OCc2ccccc2)c2ccccc21` , is 0.000536
